- method_description: Pharmacokinetic studies in mice: NSC185058 in plasma, brain and liver by LC-MS/MS
- Type: in vivo
- reported_conditions: athymic Ncr nu/nu, mouse, plasma, IP 10 mg/kg, read-out: elimination half-life (converted)
assay_endpoint: half-life (h)
Express the result in h but write the number alone.

-- ask Report half-life, nothing else, for this compound: S=C(Nc1ccccn1)c1ccccn1 [NSC185058, N-pyridin-2-yl-pyridine-2-carbothioamide]
-- reply 2

====

- method_description: Pharmacokinetic studies in mice: NSC185058 in plasma, brain and liver by LC-MS/MS
- Assay type: in vivo
- reported_conditions: athymic Ncr nu/nu, mouse, plasma, IP 50 mg/kg, read-out: elimination half-life (converted)
assay_endpoint: half-life

-- ask Report half-life, nothing else, for this compound: S=C(Nc1ccccn1)c1ccccn1 [NSC185058, N-pyridin-2-yl-pyridine-2-carbothioamide]
-- reply 240 min

====

- method_description: Pharmacokinetic studies in mice: NSC185058 in plasma, brain and liver by LC-MS/MS
- Format: in vivo
- reported_conditions: athymic Ncr nu/nu, mouse, brain, 50 mg/kg, 0.5 hrs post IP dose, read-out: Average brain tissue concentration
assay_endpoint: concentration at 0.5 h (ng/g)
Express the result in ng/g but write the number alone.

-- ask Report concentration at 0.5 h, nothing else, for this compound: S=C(Nc1ccccn1)c1ccccn1 [NSC185058, N-pyridin-2-yl-pyridine-2-carbothioamide]
-- reply 12000

====

- method_description: Pharmacokinetic studies in mice: NSC185058 in plasma, brain and liver by LC-MS/MS
- Assay type: in vivo
- reported_conditions: athymic Ncr nu/nu, mouse, IP, brain vs plasma, read-out: average brain tissue concentration relative to that in the plasma at the same time points
assay_endpoint: Kp

-- ask Report Kp, nothing else, for this compound: S=C(Nc1ccccn1)c1ccccn1 [NSC185058, N-pyridin-2-yl-pyridine-2-carbothioamide]
-- reply 0.4 to 1

====

- method_description: Pharmacokinetic studies in mice: NSC185058 in plasma, brain and liver by LC-MS/MS
- Format: in vivo
- reported_conditions: athymic Ncr nu/nu, mouse, plasma, IP 50 mg/kg, read-out: Area under the curve (AUC) for the plasma
assay_endpoint: AUC (µg·h/mL)
Express the result in µg·h/mL but write the number alone.

-- ask Report AUC, nothing else, for this compound: S=C(Nc1ccccn1)c1ccccn1 [NSC185058, N-pyridin-2-yl-pyridine-2-carbothioamide]
-- reply 57.2

====

- method_description: Pharmacokinetic studies in mice: NSC185058 in plasma, brain and liver by LC-MS/MS
- Type: in vivo
- reported_conditions: athymic Ncr nu/nu, mouse, IP single dose 50 mg/kg, plasma, read-out: average maximum plasma concentration (Cmax)
assay_endpoint: Cmax (µM)
Express the result in µM but write the number alone.

-- ask Report Cmax, nothing else, for this molecule: S=C(Nc1ccccn1)c1ccccn1 [NSC185058, N-pyridin-2-yl-pyridine-2-carbothioamide]
-- reply 33

====

- method_description: Pharmacokinetic studies in mice: NSC185058 in plasma, brain and liver by LC-MS/MS
- Assay type: in vivo
- reported_conditions: athymic Ncr nu/nu, mouse, brain, 50 mg/kg, 8 hrs post IP dose, read-out: Average brain tissue concentration
assay_endpoint: concentration at 8 h
Answer with the figure and its unit, nothing else.

-- ask Report concentration at 8 h, nothing else, for this molecule: S=C(Nc1ccccn1)c1ccccn1 [NSC185058, N-pyridin-2-yl-pyridine-2-carbothioamide]
-- reply 4100 ng/g

====

- method_description: Pharmacokinetic studies in mice: NSC185058 in plasma, brain and liver by LC-MS/MS
- Assay type: in vivo
- reported_conditions: athymic Ncr nu/nu, mouse, IP single dose 10 mg/kg, plasma, read-out: average maximum plasma concentration (Cmax)
assay_endpoint: Cmax (nM)
Express the result in nM but write the number alone.

-- ask Report Cmax, nothing else, for this compound: S=C(Nc1ccccn1)c1ccccn1 [NSC185058, N-pyridin-2-yl-pyridine-2-carbothioamide]
-- reply 2600
